TARGET_OR_SYSTEM: NLRP3 inflammasome (Homo sapiens, UniProt Q96P20)
Construct: endogenous in cells
Sequence (Q96P20 whole entry): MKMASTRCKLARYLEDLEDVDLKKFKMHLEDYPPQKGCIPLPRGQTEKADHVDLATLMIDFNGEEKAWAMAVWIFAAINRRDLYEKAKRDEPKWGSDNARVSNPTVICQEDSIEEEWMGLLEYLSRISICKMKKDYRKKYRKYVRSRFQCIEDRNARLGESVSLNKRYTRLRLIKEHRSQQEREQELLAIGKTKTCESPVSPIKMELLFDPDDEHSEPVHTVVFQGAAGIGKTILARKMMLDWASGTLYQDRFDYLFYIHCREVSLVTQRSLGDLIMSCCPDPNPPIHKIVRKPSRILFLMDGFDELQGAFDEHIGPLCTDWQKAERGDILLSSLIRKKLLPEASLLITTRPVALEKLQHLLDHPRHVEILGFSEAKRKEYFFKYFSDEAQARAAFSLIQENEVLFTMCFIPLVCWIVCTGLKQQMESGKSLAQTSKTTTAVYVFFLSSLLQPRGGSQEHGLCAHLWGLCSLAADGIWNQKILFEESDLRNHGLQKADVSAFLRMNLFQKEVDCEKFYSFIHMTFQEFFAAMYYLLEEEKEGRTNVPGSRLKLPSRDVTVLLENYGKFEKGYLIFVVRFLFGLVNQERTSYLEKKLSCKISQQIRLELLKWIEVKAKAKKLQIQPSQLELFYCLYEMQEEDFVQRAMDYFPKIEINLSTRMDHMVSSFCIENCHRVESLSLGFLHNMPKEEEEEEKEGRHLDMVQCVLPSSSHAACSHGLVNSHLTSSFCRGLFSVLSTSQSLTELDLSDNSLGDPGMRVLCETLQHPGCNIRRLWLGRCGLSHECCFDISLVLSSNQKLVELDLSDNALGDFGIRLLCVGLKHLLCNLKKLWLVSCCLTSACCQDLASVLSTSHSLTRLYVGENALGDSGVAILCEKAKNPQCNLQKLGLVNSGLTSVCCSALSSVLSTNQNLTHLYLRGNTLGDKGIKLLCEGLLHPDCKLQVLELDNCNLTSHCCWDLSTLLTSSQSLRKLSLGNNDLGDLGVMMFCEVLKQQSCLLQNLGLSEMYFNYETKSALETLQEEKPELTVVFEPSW
ASSAY_REMARKS: THP-1 IL-1β production inhibition test
ASSAY_CONDITIONS: PMA-treated THP-1 cells, LPS 50 ng/ml + ATP 5 mM, 2 hours, IL-1β in supernatant by ELISA
Measured IC50 of individual entries
Reply with just the number (in µM).

Entry Cc1c(-c2ccc(C(F)(F)F)cc2O)nnc2c1CCN2C[C@@H](C)O [Example 20] : reported IC50 = ?
0.2

====

TARGET_OR_SYSTEM: NLRP3 inflammasome (Homo sapiens, UniProt Q96P20)
Construct: endogenous in cells; host or cells: THP-1 cells, PMA-differentiated and stimulated with LPS and ATP
ASSAY_REMARKS: THP-1 IL-1β production inhibition test
Assay type: cell-based
ASSAY_CONDITIONS: PMA-treated THP-1 cells, LPS 50 ng/ml + ATP 5 mM, 2 hours, IL-1β in supernatant by ELISA
ENDPOINT: pIC50
pIC50 field: float, defined as -log10 of concentration (mol/L).

Solved cases (8 shown):
* COC1CCN([C@@H]2CCCC[C@H]2O)c2nnc(-c3ccc(C(F)(F)F)cc3O)c(C)c21 (stereo partly shown) | 7.80
* Cc1c(-c2ccc(C(F)(F)F)cc2O)nnc2c1CCCN2[C@@H]1CCCN(C)C1=O | 7.66
* Cc1c(-c2ccc(C(F)(F)F)cc2O)nnc2c1COCCN2[C@@H]1CCCN(CC(F)F)C1 | 7.85
* Cc1c(-c2ccc(C(F)(F)F)cc2O)nnc2c1CCCN2[C@@H]1CCCN(C2COC2)C1 | 7.46
* Cc1ccc(-c2nnc3c(c2C)CCCN3[C@@H]2CCCN(C)C2)c(O)c1 | 7.34
* Cc1c(-c2ccc(C(F)(F)F)cc2O)nnc2c1CCCN2[C@@H]1CCCC[C@H]1O | 7.80
* Cc1c(-c2ccc(C(F)(F)F)cc2O)nnc2c1CCCN2[C@@H]1CCCNC1=O | 7.52
* Cc1c(-c2ccc(OC(F)F)cc2O)nnc2c1CCCN2[C@@H]1CCOC[C@H]1O | 7.89

Field request: pIC50 | item: CC(=O)N1CCC[C@@H](N2CCCc3c2nnc(-c2ccc(C(F)(F)F)cc2O)c3C)C1
7.59

Field request: pIC50 | item: Cc1c(-c2ccc(OC(F)F)cc2O)nnc2c1CCCN2[C@@H]1CCCC[C@H]1O
8.09

====

// values below are reported IC50
TARGET_OR_SYSTEM: NLRP3 inflammasome (Homo sapiens)
Construct: endogenous in cells
ASSAY_REMARKS: THP-1 IL-1β production inhibition test
ASSAY_CONDITIONS: PMA-treated THP-1 cells, LPS 50 ng/ml + ATP 5 mM, 2 hours, IL-1β in supernatant by ELISA
Report the value in nM with no unit label.

Field: example entries. Status: answers known.
• Cc1cc(C(F)(F)F)cc(O)c1-c1cc2c(nn1)N([C@@H]1CCCC[C@H]1O)CCC2 = 15
• CCN1CCC[C@@H](N2CCCc3c2nnc(-c2ccc(C(F)(F)F)cc2O)c3C)C1 = 3
• Cc1c(-c2ccc(Cl)cc2O)nnc2c1COCCN2[C@@H]1CCCC[C@H]1O = 30
• Cc1c(-c2ccc(C(F)(F)F)cc2O)nnc2c1CCCN2[C@@H]1CCCN(C(N)=O)C1 = 55
• Cc1c(-c2ccc(OC(F)(F)F)cc2O)nnc2c1CCCN2[C@@H]1CCCN(C)C1 = 49
• Cc1c(-c2ccc(C(F)(F)F)cc2O)nnc2c1CN(Cc1ccccc1)CCN2[C@@H]1CCCC[C@H]1O = 250
• Cc1c(-c2ccc(C(F)(F)F)cc2O)nnc2c1CCCN2[C@H]1CNC(=O)C1 = 780
• Cc1c(-c2ccc(C(F)(F)F)cc2O)nnc2c1CCN2[C@H]1C[C@@](C)(O)C1 = 44
• Cc1c(-c2ccc(OC(F)F)cc2O)nnc2c1COCCN2[C@@H]1CCCC[C@H]1O = 9.5
• Cc1c(-c2ccc(C(F)(F)F)cc2O)nnc2c1CCCN2[C@@H]1CCCN(C2CC2)C1 = 12

Quick one: IC50 for Cc1c(-c2ccc(C(F)(F)F)cc2O)nnc2c1CCCCN2[C@@H]1CCCC[C@H]1O ?
44

Suppose we examine the compound Cc1c(-c2ccc(C(F)(F)F)cc2O)nnc2c1CCN2[C@H]1CCNC1=O ; what IC50 value has been reported?
13

Given Cc1c(-c2ccc(C(F)(F)F)cc2O)nnc2c1CN(C)CCN2[C@@H]1CCCC[C@H]1O , state its recorded IC50.
16
